# Test system: Human immunodeficiency virus 1
# protocol summary: Binding affinity to HLT-tagged HIV-1 Rev measured after overnight incubation by chemiluminescence analysis relative to IN 174-188
# Set-up: concentration or dose not given beside the values
Square brackets hold non-standard residues; d marks the D form. Peptide text beside a SMILES is read from it. NMeF = CN[C@@H](Cc1ccccc1)C(=O)O

{"columns": ["compound", "Activity [%]"],
 "data": [
  ["CC[C@H](C)[C@H](NC(=O)[C@H](Cc1ccccc1)NC(=O)[C@@H](NC(=O)[C@H](C)NC(=O)[C@H](CCSC)NC(=O)[C@H](CCC(N)=O)NC(=O)[C@@H](NC(=O)[C@@H](C)NC(=O)[C@@H](N)[C@@H](C)O)C(C)C)C(C)C)C(=O)N[C@@H](Cc1cnc[nH]1)C(=O)N[C@@H](CC(N)=O)C(=O)N[C@@H](Cc1ccccc1)C(=O)N[C@@H](CCCCN)C(=O)N[C@@H](CCCNC(=N)N)C(=O)N[C@@H](CCCCN)C(=O)O", 209],
  ["CC[C@H](C)[C@H](NC(=O)[C@H](Cc1ccccc1)NC(=O)[C@@H](NC(=O)[C@H](C)NC(=O)[C@H](C)NC(=O)[C@H](CCC(N)=O)NC(=O)[C@@H](NC(=O)[C@H](C)NC(=O)[C@@H](N)[C@@H](C)O)C(C)C)C(C)C)C(=O)N[C@@H](Cc1cnc[nH]1)C(=O)N[C@@H](CC(N)=O)C(=O)N[C@@H](Cc1ccccc1)C(=O)N[C@@H](CCCCN)C(=O)N[C@@H](CCCNC(=N)N)C(=O)N[C@@H](CCCCN)C(=O)O (H-TAVQAAVFIHNFKRK-OH)", 172],
  ["CC[C@H](C)[C@H](NC(=O)[C@H](Cc1ccccc1)NC(=O)[C@@H](NC(=O)[C@H](C)NC(=O)[C@H](CCSC)NC(=O)[C@H](CCC(N)=O)NC(=O)[C@@H](NC(=O)[C@H](C)NC(=O)[C@@H](N)[C@@H](C)O)C(C)C)C(C)C)C(=O)N[C@@H](Cc1cnc[nH]1)C(=O)N[C@@H](CC(N)=O)C(=O)N(C)[C@@H](Cc1ccccc1)C(=O)N[C@@H](CCCCN)C(=O)N[C@@H](CCCNC(=N)N)C(=O)N[C@@H](CCCCN)C(=O)O (H-TAVQMAVFIHN[NMeF]KRK-OH)", 50],
  ["CC[C@H](C)[C@H](NC(=O)[C@H](Cc1ccccc1)NC(=O)[C@@H](NC(=O)[C@H](C)NC(=O)[C@@H](N)CCSC)C(C)C)C(=O)N[C@@H](Cc1cnc[nH]1)C(=O)N[C@@H](CC(N)=O)C(=O)N[C@@H](Cc1ccccc1)C(=O)N[C@@H](CCCCN)C(=O)N[C@@H](CCCNC(=N)N)C(=O)N[C@@H](CCCCN)C(=O)O (H-MAVFIHNFKRK-OH)", 88],
  ["CC[C@H](C)[C@H](NC(=O)[C@H](Cc1ccccc1)NC(=O)[C@@H](NC(=O)[C@H](C)NC(=O)[C@H](CCSC)NC(=O)[C@H](CCC(N)=O)NC(=O)[C@@H](NC(=O)[C@H](C)NC(=O)[C@@H](N)[C@@H](C)O)C(C)C)C(C)C)C(=O)N[C@@H](Cc1cnc[nH]1)C(=O)N[C@@H](CC(N)=O)C(=O)N[C@@H](C)C(=O)N[C@@H](CCCCN)C(=O)N[C@@H](CCCNC(=N)N)C(=O)N[C@@H](CCCCN)C(=O)O (H-TAVQMAVFIHNAKRK-OH)", 193]
]}
